Test system: 786-0 renal
Assay: NCI-60 one-dose screen, 48 h
Conditions: 10 µM unless noted
Compounds without any hit were thinned out: in the full panel of roughly 83,000, 20% have a hit. Calls of active or inactive are those of the source. Rule for the calls: active = growth percent below 10; inactive = the rest.
Assign a class; possible classes are true (1) for active, false (0) for inactive

CC(=O)OC[C@]1(C)C=C2C(=O)[C@](C)(O)C3(CC3)C(C)=C2[C@H]1OC(=O)N(C)CCN(C)C(=O)OC(C)(C)C = true (1)

(Q) For this compound, state the assay outcome: CCC[CH2][Sn]([CH2]CCC)([CH2]CCC)[O]c1ccc(Cl)cc1Cl
(A) true (1)

(Q) Cool, now CCCCCCCCCCCCCCCCCC1OC[C@@H](COC(=O)O[C@@H](C(=O)O[C@H]2C[C@@]3(O)[C@@H](OC(=O)c4ccccc4)[C@@H]4[C@]5(OC(C)=O)CO[C@@H]5C[C@H](O)[C@@]4(C)C(=O)[C@H](OC(C)=O)C(=C2C)C3(C)C)[C@@H](NC(=O)c2ccccc2)c2ccccc2)O1 (stereo not given in full)
(A) false (0)

(Q) Same again, this time with Nc1c(F)cc(-c2nc3cc(F)ccc3[se]2)cc1F
(A) false (0)

(Q) Ok, now COc1cccc(C=NC(Cc2cnc[nH]2)C(=O)O)c1O (stereo not given)
(A) false (0)

(Q) // repeat for CC1=C([Te]c2ccc(O)cc2)C(=O)c2ccccc2C1=O and report
(A) true (1)

(Q) Now give it for C=C1C[C@](OC)([C@H](O)C(=O)N[C@@H](OC)[C@@H]2C[C@@H](O)C(C)(C)[C@@H](C[C@@H](COC)OC)O2)O[C@H](C)[C@@H]1C too.
(A) true (1)

(Q) Thanks! And Clc1cccc(Cl)c1Cl ?
(A) false (0)
